In this section we review reported Post-emergence action against VIOTR values for a set of compounds.
Tested on: VIOTR
test: Post-emergence action against VIOTR
Assay type: in vivo, Viola tricolor
condition-context: post-emergence, dosage 80 g/ha
measured-parameter: Post-emergence action against VIOTR

1) CCn1nnnc1NC(=O)c1ccc(Cl)c(C(=O)C2CCCC2)c1Cl: 90
2) CCn1nnnc1NC(=O)c1ccc(S(C)(=O)=O)c(C(=O)C2CC2)c1C: 100
3) CC1CC1C(=O)c1c(C(F)(F)F)ccc(C(=O)Nc2nnnn2C)c1Cl (stereo not drawn): 90
4) CCn1nnnc1NC(=O)c1ccc(C(F)F)c(C(=O)C2CC2)c1Cl: 100
5) CCn1nnnc1NC(=O)c1ccc(C)c(C(C)=O)c1Cl: 100
6) Cn1nnnc1NC(=O)c1ccc(Cl)c(C(=O)C2CCCC2)c1Cl: 100
7) Cn1nnnc1NC(=O)c1ccc(C(F)(F)F)c(C(=O)C2CCCC2)c1Cl: 80
8) CCn1nnnc1NC(=O)c1ccc(C(F)(F)F)c(C(=O)c2cc(F)cc(F)c2)c1Cl: 80
9) CCCn1nnnc1NC(=O)c1ccc(S(C)(=O)=O)c(C(=O)C2CC2)c1Cl: 100
10) CCCn1nnnc1NC(=O)c1ccc(C(F)(F)F)c(C(C)=O)c1OC: 100
11) CCC(=O)c1c(Cl)ccc(C(=O)Nc2nnnn2CC)c1Cl: 100
12) CCn1nnnc1NC(=O)c1ccc(C)c(C(=O)C2CC2)c1Cl: 80
13) CCCn1nnnc1NC(=O)c1ccc(C(F)(F)F)c(C(C)=O)c1SC: 100
14) CCCn1nnnc1NC(=O)c1ccc(C(F)F)c(C(=O)C2CC2)c1Cl: 100
15) CCCn1nnnc1NC(=O)c1ccc(S(C)(=O)=O)c(C(=O)C2CC2)c1C: 100
16) CCn1nnnc1NC(=O)c1ccc(Cl)c(C(=O)C2CC2)c1Cl: 100
17) CCn1nnnc1NC(=O)c1ccc(C(F)(F)F)c(C(=O)C2CC2)c1C1CC1: 90
18) CCn1nnnc1NC(=O)c1ccc(C(F)(F)F)c(C(=O)CCl)c1Cl: 100
19) CCn1nnnc1NC(=O)c1ccc(SC)c(C(C)=O)c1Cl: 100
20) CCCn1nnnc1NC(=O)c1ccc(C(F)(F)F)c(C(C)=O)c1C: 100
21) CCCn1nnnc1NC(=O)c1ccc(C(F)F)c(C(C)=O)c1Cl: 100
22) CCn1nnnc1NC(=O)c1ccc(C(F)(F)F)c(C(C)=O)c1C: 100
23) CCCn1nnnc1NC(=O)c1ccc(C(F)(F)F)c(C(C)=O)c1Br: 90
24) CCCn1nnnc1NC(=O)c1ccc(C)c(C(C)=O)c1C: 100
25) CCn1nnnc1NC(=O)c1ccc(C)c(C(C)=O)c1C: 100
26) Cn1nnnc1NC(=O)c1ccc(C(F)(F)F)c(C(=O)c2cc(F)cc(F)c2)c1Cl: 90
27) CCn1nnnc1NC(=O)c1ccc(S(C)(=O)=O)c(C(C)=O)c1Cl: 100
28) CCn1nnnc1NC(=O)c1ccc(Cl)c(C(=O)C(C)C)c1Cl: 90
29) CCn1nnnc1NC(=O)c1ccc(S(C)(=O)=O)c(C(=O)C2CC2)c1Cl: 100
30) Cn1nnnc1NC(=O)c1ccc(C(F)(F)F)c(C(=O)C2CCC2)c1Cl: 80
31) CCn1nnnc1NC(=O)c1ccc(C(F)(F)F)c(C(=O)C2CCC2)c1SC: 80
32) CCCn1nnnc1NC(=O)c1ccc(C(F)(F)F)c(C(C)=O)c1Cl: 100
33) CCn1nnnc1NC(=O)c1ccc(C(F)(F)F)c(C(=O)C2CCC2)c1Cl: 90
34) CCCC(=O)c1c(C(F)(F)F)ccc(C(=O)Nc2nnnn2CC)c1C: 100
35) CCn1nnnc1NC(=O)c1ccc(SC)c(C(=O)C2CC2)c1Cl: 100
36) CCn1nnnc1NC(=O)c1ccc(C(F)(F)F)c(C(=O)C2CC2)c1OC: 100
37) CCn1nnnc1NC(=O)c1ccc(C(F)(F)F)c(C(=O)C2CC2)c1Cl: 100
38) CCCn1nnnc1NC(=O)c1ccc(C(F)(F)F)c(C(=O)C2CC2)c1Cl: 100
39) CCC(=O)c1c(C(F)(F)F)ccc(C(=O)Nc2nnnn2CC)c1C: 100
